// reported selectivity ratio per item
# Measurement Notes: Selectivity index, ratio of EC50 for human HepG2A16 cells to EC50 for chloroquine-sensitive Plasmodium falciparum 3D7 infected in human erythrocyte
# Type: toxicity
# Measurement Conditions: read-out: Ratio EC50
The answer should be a number; do not append a unit.

Solved cases below.
Measured selectivity ratio of `Clc1ccc2nccc(N3CCC(CN4CCC(c5c[nH]c6ccccc56)CC4)CC3)c2c1` : 16.1

Measured selectivity ratio of `Clc1ccc2nccc(N3CCC(c4c[nH]c5ccccc45)CC3)c2c1` : 0.67

Measured selectivity ratio of `c1ccc2c(C3CCN(Cc4ccc(CN5CCC(c6c[nH]c7ccccc67)CC5)cc4)CC3)c[nH]c2c1` : 5.75

// switching to the query molecule
Measured selectivity ratio of `O=C(c1cccnc1)N1CCC(c2c[nH]c3ccccc23)CC1` : 3.37
